Reference source for all entries: ChEMBL document CHEMBL4828702

- MEASURED TARGET: Solute carrier family 22 member 1 (Homo sapiens) (UniProt O15245)
- Sequence (O15245 whole entry, looked up): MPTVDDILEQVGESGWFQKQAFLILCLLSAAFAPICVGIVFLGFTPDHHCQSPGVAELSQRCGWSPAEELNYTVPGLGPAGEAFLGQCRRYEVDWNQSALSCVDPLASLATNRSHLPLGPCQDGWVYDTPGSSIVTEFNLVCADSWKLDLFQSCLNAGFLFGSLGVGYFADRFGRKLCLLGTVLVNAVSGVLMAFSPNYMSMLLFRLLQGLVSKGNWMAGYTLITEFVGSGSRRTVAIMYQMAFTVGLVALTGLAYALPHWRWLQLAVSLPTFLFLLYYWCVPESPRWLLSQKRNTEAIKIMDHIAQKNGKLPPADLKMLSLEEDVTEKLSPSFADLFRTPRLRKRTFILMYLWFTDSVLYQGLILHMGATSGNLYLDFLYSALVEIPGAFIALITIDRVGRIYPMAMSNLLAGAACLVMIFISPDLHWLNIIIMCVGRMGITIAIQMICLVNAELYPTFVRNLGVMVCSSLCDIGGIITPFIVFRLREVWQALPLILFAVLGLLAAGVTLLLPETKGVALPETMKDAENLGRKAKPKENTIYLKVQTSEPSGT
- ASSAY REMARKS: Substrate activity at human OCT1 expressed in HEK293 cells assessed as increase in compound uptake by measuring intrinsic clearance incubated for 2 mins by LC-MS/MS analysis
MEASURE NAME: clearance (mL/min/g)
Lab book: enter the figure in mL/min/g, no units written.

Enter measured clearance, system Solute carrier family 22 member 1 (Homo sapiens) (UniProt O15245), for the compound shown: CC(NCCc1ccc(O)cc1)C(O)c1ccc(O)cc1 (stereo unspecified) [RITODRINE]
104

Enter measured clearance, system Solute carrier family 22 member 1 (Homo sapiens) (UniProt O15245), for the compound shown: CN[C@@H]1CCc2[nH]c3ccc(C(N)=O)cc3c2C1 [FROVATRIPTAN]
50.3

Enter measured clearance, system Solute carrier family 22 member 1 (Homo sapiens) (UniProt O15245), for the compound shown: N=C(N)NCc1cccc(I)c1 [IOBENGUANE]
3160

Enter measured clearance, system Solute carrier family 22 member 1 (Homo sapiens) (UniProt O15245), for the compound shown: NCC(O)c1ccc(O)cc1 (stereo unspecified)
9.1

Enter measured clearance, system Solute carrier family 22 member 1 (Homo sapiens) (UniProt O15245), for the compound shown: CCN(CC)CCNC(=O)c1ccc(NS(C)(=O)=O)cc1 [SEMATILIDE]
3.3

Enter measured clearance, system Solute carrier family 22 member 1 (Homo sapiens) (UniProt O15245), for the compound shown: CC(C)NC[C@H](O)COc1ccc(O)cc1 [PRENALTEROL]
12.4

---

- Test system: OCT1
- ASSAY REMARKS: Ratio of drug uptake in human OCT1 expressing HEK293 cells at 2.5 uM to drug uptake in empty vector transfected human HEK293 cells at 2.5 uM
- Assay type: ADME, cell-based
Answer each item with its documented uptake ratio at 2.5 µM.
API note: the answer field is a bare number with no unit suffix.

Query uptake ratio at 2.5 µM for `Nc1ccncc1N`
6.8

Query uptake ratio at 2.5 µM for `CNC[C@H](O)c1cccc(O)c1`
10.6

Query uptake ratio at 2.5 µM for `CC(C)NC[C@H](O)COc1ccc(O)cc1`
5.3

Query uptake ratio at 2.5 µM for CC(CCc1ccc(O)cc1)NCCc1ccc(O)c(O)c1 (stereo not given)
14.7

Query uptake ratio at 2.5 µM for CC(NCCc1ccc(O)cc1)C(O)c1ccc(O)cc1 (stereo not given)
7.6
